In this section, each of the binders is paired with its reported A450.
Molecular target: T1, Mouse Id1: Histidine (mouse, UniProt P20067-2 1-148, limits assumed)
T1 construct: Fusion protein made in E. coli from vector pGW07; also called m-Id1-His; not shown: His tag
T1 sequence (looked up): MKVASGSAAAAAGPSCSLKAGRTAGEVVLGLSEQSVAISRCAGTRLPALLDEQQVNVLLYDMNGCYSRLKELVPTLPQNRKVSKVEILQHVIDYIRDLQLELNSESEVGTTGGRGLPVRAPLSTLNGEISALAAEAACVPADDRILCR
Test: ELISA, Ab 0.010 µg/ml
Unit A450 implied. Number only.

# binder, endpoint, meas value
records = [
    ("rabbit monoclonal anti-mouse/human Id3, clone #BCH-4/#42-1 (antibody, V domains shown, Rabbit IgG from a rabbit hybridoma; also called m/h Id3 MoAb 42-1) VH: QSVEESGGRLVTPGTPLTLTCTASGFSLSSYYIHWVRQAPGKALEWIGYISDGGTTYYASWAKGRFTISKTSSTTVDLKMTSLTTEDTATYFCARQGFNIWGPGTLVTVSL VL: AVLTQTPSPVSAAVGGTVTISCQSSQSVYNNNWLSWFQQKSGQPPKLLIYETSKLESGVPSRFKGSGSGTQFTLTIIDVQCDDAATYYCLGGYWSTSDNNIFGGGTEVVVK", "A450", 0.043),
]

In the following, a different binder is considered.
Provide measured A450 value, entry: rabbit monoclonal anti-mouse/human Id3, clone #BCH-4/#6-1 (antibody, V domains shown, Rabbit IgG from a rabbit hybridoma; also called m/h Id3 MoAb 6-1) VH: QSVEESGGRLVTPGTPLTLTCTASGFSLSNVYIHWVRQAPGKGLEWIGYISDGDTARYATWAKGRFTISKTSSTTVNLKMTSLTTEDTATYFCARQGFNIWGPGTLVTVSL VL: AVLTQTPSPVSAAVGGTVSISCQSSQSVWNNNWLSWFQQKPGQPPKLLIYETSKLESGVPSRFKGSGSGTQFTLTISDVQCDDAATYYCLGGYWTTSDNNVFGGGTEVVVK
0.044
